test-description: NCI Yeast Anticancer Drug Screen. Data for the cln2 rad14 strain (AID 165);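 note: 0% = growth equal to vehicle treated cultures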
study-conditions: S. cerevisiae cln2 rad14 strain, at 50.0 µM
Compounds without any hit were thinned out: in the full panel of roughly 79,000, 15% have a hit. Calls of active or inactive are those of the source. Cut-off read from the data, not from the text of the source: active = growth inhibition above about 70%; inactive = the rest.
One label from this list, please: 1.0 = active, 0.0 = inactive

Consider the worked cases shown below.
O=C(NC(=S)c1ccco1)NS(=O)(=O)c1ccc(Cl)cc1 = 0.0
O=C(O)CNC(=O)c1ccc2cc(C(=O)N3CC(CCl)c4ccc([N+](=O)[O-])cc43)[nH]c2c1 (stereo unspecified) = 0.0
CC(=O)Oc1ccc(=O)[nH]c1 = 0.0
O=C1c2ccccc2C(=O)N1CCc1ncc[nH]1 = 0.0
CC(=O)CC1CCc2ccc3ccccc3c2C1c1cccc2ccccc12 (stereo unspecified) = 0.0

Query :: Look up the recorded call for CCOC(=O)c1c(-c2ccc(Cl)cc2)c(C#N)c(=S)n(C2OC(COC(C)=O)C(OC(C)=O)C(OC(C)=O)C2OC(C)=O)c1C (stereo unspecified) in this test.
Result :: 0.0

Query :: Look up the recorded call for "NCCCNCCCCNCCCNCc1c2ccccc2c(CNCCCNCCCCNCCCN)c2ccccc12" in this test.
Result :: 1.0

Query :: Look up the recorded call for "CC1(C)CCc2c(cc3c(c2O)CCC(C)(C)O3)O1" in this test.
Result :: 0.0

Query :: Look up the recorded call for COc1cccc(/C=C2\CCC(C)(CN(C)C)C2=O)c1 (stereo unspecified) in this test.
Result :: 0.0

Query :: Look up the recorded call for COc1nc2c(c(O)c(C)c(=O)n2OC2OC(COC(C)=O)C(OC(C)=O)C(OC(C)=O)C2OC(C)=O)c(=O)n1C (stereo unspecified) in this test.
Result :: 0.0

Query :: Look up the recorded call for "CCCn1c(=S)[nH]c2c(=O)n(C)c(=O)n(C)c21" in this test.
Result :: 0.0

Query :: Look up the recorded call for "COc1ccc(/C=c2/s/c(=C(\C#N)c3nc4ccccc4[nH]3)n(-c3ccccc3)c2=O)cc1" in this test.
Result :: 0.0

Query :: Look up the recorded call for C=C1OC(C2CCCCC2)=C(C(=O)OCC)C1C (stereo unspecified) in this test.
Result :: 0.0

Query :: Look up the recorded call for CCSCCC(Nc1ncnc2nc[nH]c12)C(=O)O (stereo unspecified) in this test.
Result :: 0.0

Query :: Look up the recorded call for "COC(=O)n1c(=O)oc2ccc(Br)cc21" in this test.
Result :: 1.0

Query :: Look up the recorded call for "Cc1cc(C)[n+]([O-])c(C)c1" in this test.
Result :: 0.0

Query :: Look up the recorded call for "CCCCCCCCCCCCCCCCCCOc1c(Cl)c(Cl)c(Cl)c(Cl)c1Cl" in this test.
Result :: 0.0

Query :: Look up the recorded call for "Cc1ccc(C(C)C)cc1OCCOCCCl" in this test.
Result :: 0.0

Query :: Look up the recorded call for "Cc1c(C#N)c(=N)oc2ccccc12" in this test.
Result :: 0.0

Query :: Look up the recorded call for "CNCc1cccc(OC)c1OC" in this test.
Result :: 0.0

Query :: Look up the recorded call for "CC(C)OC(=O)N[C@@H]1c2ccccc2CC[C@H]1I" in this test.
Result :: 0.0

Query :: Look up the recorded call for "C[N+]1(C)CCN(S(=O)(=O)c2ccccc2)c2ccccc21" in this test.
Result :: 0.0

Query :: Look up the recorded call for COc1ccc(OC)c(NC(=O)CCCC(=O)C(C#N)c2ccccc2C)c1 (stereo unspecified) in this test.
Result :: 0.0

Query :: Look up the recorded call for "CCc1sc(N)nc1-c1ccccc1" in this test.
Result :: 0.0

Query :: Look up the recorded call for "NC(=S)N/N=C/c1ccc2c(c1)OCO2" in this test.
Result :: 0.0

Query :: Look up the recorded call for COc1cc(Br)c(C2SCC(=O)N2c2nncs2)cc1OC (stereo unspecified) in this test.
Result :: 0.0

Query :: Look up the recorded call for "COc1ccc(NC(=O)c2cc3cc(N=Nc4ccc(Br)cc4)ccc3oc2=O)cc1" in this test.
Result :: 0.0

----------
test-description: NCI Yeast Anticancer Drug Screen. Data for the rad50 strain (AID 155);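 note: 0% = growth of vehicle-only cultures of the same strain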
study-conditions: S. cerevisiae rad50 strain growth inhibition; at 50.0 µM; hits give high values
The panel holds about 79,000 compounds, 15% with a hit somewhere; the sample as a whole holds those more often. The source made the active and inactive calls. Cut-off read from the data, not from the text of the source: active = growth inhibition above about 70%; inactive = the rest.
quantity-kind: growth inhibition

O=C1C=C(N2CCCC2)CC1 = 18.2% (inactive)
COc1ccc(CN2CCCN(Cc3ccc(OC)cc3OC)C2c2ccc(N(C)C)cc2)c(OC)c1 = 39.9% (inactive)
COC1OCC(OS(C)(=O)=O)C(NC(C)=O)C1OS(C)(=O)=O (stereo not given) = -13.9% (inactive)

Query :: Requested read-out: growth inhibition. Entry: "Cc1cc2c(C(C)C)c(O)c(O)c(C=Nc3ccccc3)c2c(O)c1-c1c(C)cc2c(C(C)C)c(O)c(O)c(C=Nc3ccccc3)c2c1O"
Result :: 1.45% (inactive)

Query :: Requested read-out: growth inhibition. Entry: "CN(C)S(=O)(=O)c1cccc([N+](=O)[O-])c1"
Result :: 17.5% (inactive)

----------
test-description: NCI Yeast Anticancer Drug Screen. Data for the rad50 strain (AID 155);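 note: 0% = growth of vehicle-only cultures of the same strain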
study-conditions: S. cerevisiae rad50 strain growth inhibition; at 50.0 µM; hits give high values
Compounds without any hit were thinned out: in the full panel of roughly 79,000, 15% have a hit.
# growth inhibition >= -20% gives TRUE, anything below gives FALSE

Consider the worked cases shown below.
CN=Cc1c(O)ccc2ccccc12.[Cu+2] = TRUE
COc1cc(C(O)CCBr)c(OC)cc1C (stereo not drawn) = FALSE
O=[N+]([O-])c1ccc(O)c(N=Cc2ccc(C=Nc3cc([N+](=O)[O-])ccc3O)cc2)c1 = FALSE
Clc1ccc(-c2nc3ccccc3cc2N2CCCCC2)cc1 = TRUE
C[N+](C)(C)C(Cc1ccccc1)Cc1ccccc1 = FALSE

Query :: Is growth inhibition for CCCC(=O)OC(C)CC(C)C (stereo not drawn) at or above -20%?
Result :: TRUE

Query :: Is growth inhibition for "CCOC(=O)c1nc2ccccc2nc1Nc1ccc(OC)c(OC)c1" at or above -20%?
Result :: FALSE

Query :: Is growth inhibition for "COc1ccc(N2C(=O)C(=O)N(C)C2=O)c2ccccc12" at or above -20%?
Result :: TRUE

----------
test-description: NCI Yeast Anticancer Drug Screen. Data for the sgs1 mgt1 strain (AID 161);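 note: 0% = growth of cultures given vehicle only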
study-conditions: S. cerevisiae sgs1 mgt1 strain, at 50.0 µM, hits give high values
About 79,000 compounds went through this panel and 15% of them were active in at least one assay; those are over-represented in the sample as a whole.
quantity-kind: growth inhibition (%)
Field: numeric (%). Do not append units.

Would you please look over these solved cases?
Cn1ncc2c(=O)[nH]c(NCCO)nc21 = 0.9
CNC(=O)CN(CC(=O)NC)C(=O)NC = -18
O=C1C=C(N2CCCC2)CC1 = -0.2
Nc1ccc(Cl)cc1Br = -6.5
Fc1ccc(N2C(c3ccccc3)=N[C@@H](N3CCOCC3)[C@@H]2N2CCOCC2)cc1 = 4.2

Query :: Requested read-out: growth inhibition. Entry: CC1=NC(C(=O)O)C(C)(C)S1 (configuration not stated)
Result :: -22.2

Query :: Requested read-out: growth inhibition. Entry: Cc1c(Br)c(Br)nn1C(C)C(=O)N(C)C (configuration not stated)
Result :: -4.55

Query :: Requested read-out: growth inhibition. Entry: CCOC(=O)CCC(C(=O)OCC)C(C)C(=O)OCC (configuration not stated)
Result :: -25.8

----------
test-description: NCI Yeast Anticancer Drug Screen. Data for the sgs1 mgt1 strain (AID 161);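 note: 0% = growth of cultures given vehicle only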
study-conditions: S. cerevisiae sgs1 mgt1 strain, at 50.0 µM, hits give high values
The panel holds about 79,000 compounds, 15% with a hit somewhere; the sample as a whole holds those more often.
quantity-kind: growth inhibition (%)
Field: numeric (%). Do not append units.

Would you please look over these solved cases?
CC/C(=C\c1ccc(OC)cc1)c1ccc(OC)cc1 = 7.05
CCOC(=O)NCS(=O)(=O)N1CCOCC1 = 8

Pending molecule:
Query :: Requested read-out: growth inhibition. Entry: "CCOCCOC(=O)Nc1ccc(C)c(NC(=O)OCCOCC)c1"
Result :: 8.65

----------
test-description: NCI Yeast Anticancer Drug Screen. Data for the rad50 strain (AID 155);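 note: 0% = growth of vehicle-only cultures of the same strain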
study-conditions: S. cerevisiae rad50 strain growth inhibition; at 50.0 µM; hits give high values
This is part of a sample that, as a whole, favours compounds with a hit. Of some 79,000 tested, about 15% had one in any assay.
quantity-kind: growth inhibition (%)
Field: numeric (%). Do not append units.

Query :: Requested read-out: growth inhibition. Entry: C=C1CCC2C(C)(CO)C(O)CCC2(C)C1CCC1=CCOC1=O (stereo not drawn)
Result :: -22.4

Query :: Requested read-out: growth inhibition. Entry: COC(=O)C1(CC(=O)/C=C/c2ccccc2)NC(=S)NC(=O)C1C#N (stereo not drawn)
Result :: 15.7
